# TARGET_UNDER_TEST: T1, FBF-2 RNA-binding domain (Caenorhabditis elegans, UniProt Q09312 164-575)
# T1 sequence: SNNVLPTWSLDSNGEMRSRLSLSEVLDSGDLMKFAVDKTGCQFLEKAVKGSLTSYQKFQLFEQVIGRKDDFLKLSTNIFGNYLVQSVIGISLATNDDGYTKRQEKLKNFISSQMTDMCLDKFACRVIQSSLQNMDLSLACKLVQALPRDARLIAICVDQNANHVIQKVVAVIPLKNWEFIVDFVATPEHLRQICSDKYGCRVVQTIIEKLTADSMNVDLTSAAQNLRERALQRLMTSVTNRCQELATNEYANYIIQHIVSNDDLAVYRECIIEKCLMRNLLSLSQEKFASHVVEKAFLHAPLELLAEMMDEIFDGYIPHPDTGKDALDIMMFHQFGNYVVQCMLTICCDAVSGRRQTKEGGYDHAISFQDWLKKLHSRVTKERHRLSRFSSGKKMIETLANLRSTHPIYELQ
# EXPERIMENTAL_PROTOCOL: fluorescence polarization; 25 C; apparent Kd; FP with 5 nM ligand at 25 C (some FPCD at 4 C); buffer for MS2-CP (BB6): 100 mM Tris pH 7.5, 10 mM MgCl2, 80 mM KCl, 0.1 mg/mL BSA; other buffers not in material
# MEASUREMENT_CONDITIONS: protein: recombinant; label: 5' 6-FAM
ASSAY_METRIC: pKd
Scale for pKd: -log10 of concentration given in mol/L; no unit attached.

Form: binder = AACAUGUGCCAUA (ssRNA) [[F]RNAPUF] ; pKd = 7.30
